Assay: chemical genetic growth profiling, strain panel (AID 1159580);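 also: tested at 20 µM; growth read once vehicle control cultures reached saturation at 30 °C; 1 = growth at the plate median or of vehicle wells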
Details: S. cerevisiae deletion strains, growth OD, locus YHR094C, strain hxt1, hits give low values
Among all 5,500 compounds or so, about 2,000 (36%) were called active. Another 18% or so got no clear call; they are omitted. Some of the results follow.
Cut-off 1 on normalized growth: below means condition met, at or above means condition not met.

# TODO verify normalized growth < 1 strictly for this compound: `COc1cc(/C=C/C(=O)O)ccc1O`
condition met

Answer whether the compound CCCCC(CC)CN=C(N)NC(N)=NCCCCCCN=C(N)NC(N)=NCC(CC)CCCC (stereo not drawn) has normalized growth strictly less than 1
condition met

Report whether reported normalized growth is lower than 1 (strictly) for CC12CCC3C(CC=C4CC(O)CCC43C)C1CCC2=O (stereo not drawn)
condition not met

Dear colleague, could you confirm whether normalized growth of `COc1cc(O)cc(/C=C/c2ccccc2)c1` falls below 1? Thanks.
condition met

Say whether its normalized growth is strictly beneath 1. Entry: CC(=O)O[C@H]1CC[C@@]2(C)C(=CCC3C2CC[C@]2(C)C(=O)CCC32)C1 (stereo partly drawn)
condition not met

Quick check: normalized growth of `COc1ccc(/C=C/c2cc(O)cc(O)c2)cc1` under 1?
condition met

* * *

Experiment: chemical genetic growth profiling, strain panel (AID 1159580);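 also: tested at 20 µM; growth read once vehicle control cultures reached saturation at 30 °C; 1 = growth at the plate median or of vehicle wells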
Conditions: S. cerevisiae deletion strains, growth OD, locus YDL214C, strain PRR2, hits give low values
Out of some 5,500 compounds screened, about 2,000 (36%) were called active. About 18% were inconclusive and are not listed. The list shows a part of the results.
Could you mark each record MET if its normalized growth falls strictly under 0.9, and NOT MET if it equals or exceeds it?

Field: below-cutoff. Rule: recorded normalized growth strictly less than 0.9. Subject: `NC(=NC(=O)c1ccc(Cl)cc1)c1cccs1`
MET

Determine whether this compound shows normalized growth lower than 0.9 (ties excluded): `O=C(CO/N=C\c1ccc(Cl)cc1Cl)NNC(=S)Nc1cc(Cl)ccc1Cl`
NOT MET

# TODO verify normalized growth < 0.9 strictly for this compound: `O=C(Nc1ccc(Cl)cc1Cl)c1cnccc1C(F)(F)F`
NOT MET

Hello, I'm reviewing records and need to know if normalized growth of `CCc1cc2c(cc1-c1csc(C/C(N)=N\O)n1)C(C)(C)CCC2(C)C` is below 0.9. Could you check?
MET

For this compound, is normalized growth lower than 0.9? N#CC1=C(N)C(C#N)(C#N)C2(CCCCC2)C2CCCC=C12 (stereo unspecified)
NOT MET

* * *

Hi there, I'd appreciate the recorded normalized growth for every entry that follows.
Test: chemical genetic growth profiling, strain panel (AID 1159580);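 also: tested at 20 µM; growth read once vehicle control cultures reached saturation at 30 °C; 1 = growth at the plate median or of vehicle wells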
Conditions: S. cerevisiae deletion strains, growth OD, locus YJL168C, strain set2, hits give low values
In all, about 5,500 compounds went through this assay and about 2,000 (36%) were called active. Not shown: some 18% with an inconclusive outcome. The list shows a part of the results.
// return a plain number; no unit text

What value of normalized growth has been recorded for this entry: `COC(=O)[C@H]1[C@H]2C[C@@H]3c4[nH]c5cc(OC)ccc5c4CCN3C[C@H]2C[C@@H](OC(=O)c2cc(OC)c(OC)c(OC)c2)[C@@H]1OC`
1.01

# lookup: normalized growth of `O=C1N=C(O)CN1/N=C\c1ccc(-c2ccc([N+](=O)[O-])cc2)o1`
1.02

Request the reported normalized growth associated with `COc1cc(O)cc(/C=C/c2ccccc2)c1`
0.954

Fill in the blank: the reported normalized growth of `Nc1ccc(S(=O)(=O)Nc2nccs2)cc1` is ____.
0.992

So what's the measured normalized growth for this one? `Nc1nccs1`
0.988

Which normalized growth value is on record for `Oc1cc(O)cc(/C=C/c2ccccc2)c1` ?
0.974

Any idea what its normalized growth is? The compound is CC[C@@H](C(=O)[C@@H](C)[C@@H](O)[C@H](C)[C@@H]1O[C@@H]([C@@H](CC)C(=O)O)CC[C@@H]1C)[C@H]1OC2(C=C[C@@H](O)[C@]3(CC[C@@](C)([C@H]4CC[C@](O)(CC)[C@H](C)O4)O3)O2)[C@H](C)C[C@@H]1C (stereo not given in full)
0.873

Form field: reported normalized growth of `O=C1CN(/N=C\c2ccc([N+](=O)[O-])o2)C(=O)N1`
0.989

Can you share its normalized growth? I mean this compound: `CN(Cc1cc(Br)cc(Br)c1N)C1CCCCC1`
1.02

// normalized growth lookup, key: `CCn1cc(C(=O)O)c(=O)c2ccc(C)nc21`
0.895

Query (compound): `CC1=C(/C=C/C(C)=C/C=C/C(C)=C\C(=O)O)C(C)(C)CCC1` ; field requested: normalized growth
0.999

// query normalized growth value for entry COc1cc2c3cc1Oc1cc(ccc1O)OC1c4c(cc(OC)c(O)c4Oc4ccc(cc4)CC3N(C)CC2)CCN1C (stereo not given)
0.986

Requested field: normalized growth. Item: `CCOC(=O)c1ccc(N)cc1`
0.992

// lookup normalized growth for CC1CC2C(C(O)CC3(C)C2CCC3(O)C(=O)COC(=O)CCC(=O)O)C2(C)C=CC(=O)C=C12 (stereo not given)
0.979

Recorded normalized growth of Nc1nc(N)c2nc(CNc3ccc(C(=O)NC(CCC(=O)O)C(=O)O)cc3)cnc2n1 (stereo not given) , please.
0.998

Quick one: normalized growth of `CC1=C(/C=C/C(C)=C/C=C/C(C)=C/CO)C(C)(C)CCC1` ?
0.997

Data request, read-out normalized growth, for CC(C)C1=CC2=CCC3[C@](C)(CCC[C@]3(C)C(=O)O)C2CC1 (stereo not given in full)
0.977

Fill blank: measured normalized growth of the compound `CCn1cc(C(=O)O)c(=O)c2cnc(N3CCNCC3)nc21` is ____.
0.99

Value lookup for normalized growth; key = `NCc1ccc(S(N)(=O)=O)cc1`
0.991

What normalized growth value was documented for this compound, Cc1cccc(CN2CCN(C(c3ccccc3)c3ccc(Cl)cc3)CC2)c1 (stereo not given) ?
0.987

Looking for the measured normalized growth of C#C[C@]1(O)CCC2C3CCc4cc(O)ccc4C3CC[C@@]21C (stereo not given in full) , can you help?
1.02

If you can, please state the reported normalized growth value of COc1ccc(C[C@H](N)C(=O)N[C@@H]2[C@@H](CO)OC(n3cnc4c(N(C)C)ncnc43)[C@@H]2O)cc1 (stereo not given in full) .
1.01

May I ask what normalized growth has been recorded for Nc1nc2c(c(=O)[nH]1)N(C=O)C(CNc1ccc(C(=O)N[C@@H](CCC(=O)O)C(=O)O)cc1)CN2 (stereo not given in full) ?
0.981

Fill in the blank: the reported normalized growth of `NC(=O)c1cnccn1` is ____.
1.01

Would you mind telling me what normalized growth value was observed for `CCOC(N)=O` ?
1.02

Any idea what normalized growth was measured for CN1CCc2cccc3c2C1Cc1ccc(O)c(O)c1-3 (stereo not given) ?
0.989

Would you kindly share the measured normalized growth for `CCn1cc(C(=O)O)c(=O)c2cnc(N3CCCC3)nc21` ?
1

Please report the recorded normalized growth for CC(=O)N[C@@H]1[C@@H](C(O)[C@H](O)CO)O[C@](O)(C(=O)O)C[C@@H]1O (stereo not given in full) .
1.01

Requested field: normalized growth. Item: `O=C(/C=C/c1ccc(O)c(O)c1)O[C@@H]1C[C@](O)(C(=O)O)C[C@@H](O)[C@H]1O`
1

Record request: normalized growth value, item `OC/C=C/c1ccc(O)c(O)c1`
0.962

Record request: normalized growth value, item `CCOP(=S)(OCC)Oc1ccc2c(C)c(Cl)c(=O)oc2c1`
0.986

Find the recorded normalized growth belonging to `CS(=O)(=O)OCCCCOS(C)(=O)=O` and report it.
0.955

Quick check: normalized growth of `CC1=C(/C=C/C(C)=C/C=C/C(C)=C/C=C/C=C(C)/C=C/C=C(C)/C=C/C2=C(C)CCCC2(C)C)C(C)(C)CCC1` ?
1

Return reported normalized growth; argument: CN(Cc1cnc2nc(N)nc(N)c2n1)c1ccc(C(=O)NC(CCC(=O)O)C(=O)O)cc1 (stereo not given)
1

Which measured normalized growth value corresponds to `COc1ccc(/C=C/c2cc(O)cc(O)c2)cc1` ?
0.969

Data provenance is PubChem BioAssay AID1159580.
